The measured values listed here are drawn from PubChem BioAssay.

assay: viability loss with induced miR-34 in A549 – imaging, A549 dox-inducible miR-34, nuclei and caspase counts, primary screen (AID 1347080); conditions: A549 miR-34 inducible, Hoechst nuclei count, 48 h; stronger effect = lower value; cell number ratio, induced over uninduced; note: test concentration not given here
Calls of active or inactive are those of the source.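 Rule for the calls: active = compounds whose cell count with miR-34 switched on is under 0.7 times the count with it off; inactive = the rest.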 *1 amine or outer side, *2 acyl side, *3 side chain or, on linkers, in order; H or OH if unused. Where a SMILES comes first, the peptide text is derived from it. Bridges are numbered along the chain shown (N, C = ends). Roman numbers before positions name the chains, in order. [ ]: non-standard residue; d: D form. Hexamethylenediamine = C(CCCN[*:2])CCN[*:1]; Dip = N[CH](C(=O)O)C(c1ccccc1)c1ccccc1; Chg = N[CH](C(=O)O)C1CCCCC1; NMeA = CN[CH](C)C(=O)O
Measured fold change accompanies every entry in the list below.
Property label: fold change

1) CC1(C)S[C@@H]2[C@H](NC(=O)[C@H](NC(=O)N3CCNC3=O)c3ccccc3)C(=O)N2C1C(=O)O (stereo partly drawn) :: 0.882 (inactive)
2) CC(=O)O[C@@]1(C(C)=O)CC[C@H]2[C@@H]3C=C(Cl)C4=CC(=O)C5CC5[C@]4(C)[C@@H]3CC[C@@]21C (stereo partly drawn) :: 0.94 (inactive)
3) COc1ccc(-c2cc(-n3cccn3)ncn2)c(-n2cccn2)c1 :: 0.922 (inactive)
4) FC(F)(F)c1ccc(C=Cc2nc(COc3ccc(CCCCn4ccnn4)cc3)co2)cc1 :: 0.766 (inactive)
5) CCCn1ncc(-c2ccnc(NCc3cc(CC)no3)n2)c1C :: 0.843 (inactive)
6) CC1CC(=O)NN=C1c1ccc(NN=C(C#N)C#N)cc1 (stereo not drawn) :: 0.851 (inactive)
7) O=C1NCC(=O)N2CCCC12 (stereo not drawn) :: 0.892 (inactive)
8) O=C(Nc1c[nH]c2ccccc12)c1cc(-c2ccc(F)cc2)n[nH]1 :: 0.84 (inactive)
9) O=C(C=Cc1ccc(O)c(O)c1)OCCc1ccccc1 :: 1.02 (inactive)
10) COC1C=CC=C(C)C(=O)NC2=CC(=O)C(NCCN(C)C)=C(CC(C)CC(OC)C(O)C(C)C=C(C)C1OC(N)=O)C2=O (stereo not drawn) :: 1.03 (inactive)
11) O=C(NCCOc1cccnc1)c1ccc2ncsc2c1 :: 0.858 (inactive)
12) CCCC(=O)O[C@@]1(C(=O)COC(C)=O)CC[C@H]2[C@@H]3CC(F)C4=CC(=O)C=C[C@]4(C)[C@]3(F)C(O)C[C@@]21C (stereo partly drawn) :: 0.767 (inactive)
13) CC(C)N(CCC(c1ccccc1)c1cc(CO)ccc1O)C(C)C (stereo not drawn) :: 0.934 (inactive)
14) CC(=O)C1CC[C@H]2[C@@H]3CC=C4CC(O)CC[C@]4(C)[C@@H]3CC[C@]12C (stereo partly drawn) :: 0.983 (inactive)
15) CNC(C)C(=O)NC(C(=O)N1CCCC1C(=O)NC(C(=O)NCCCCCCNC(=O)C(NC(=O)C1CCCN1C(=O)C(NC(=O)C(C)NC)C1CCCCC1)C(c1ccccc1)c1ccccc1)C(c1ccccc1)c1ccccc1)C1CCCCC1 (stereo not drawn) (I: H-[NMeA][Chg]P[Dip] / II: H-[NMeA][Chg]P[Dip]; linker I:C-II:C via Hexamethylenediamine; configuration not given here) :: 0.971 (inactive)
16) O=C1O/C(=C/Br)CCC1c1cccc2ccccc12 (stereo not drawn) :: 0.964 (inactive)
17) CCNC(=O)c1[nH]nc(-c2cc(Cl)c(O)cc2O)c1-c1ccc(OC)cc1 :: 1.1 (inactive)
18) O=C(O)CCC(=O)N1CCCC1C(=O)O (stereo not drawn) :: 0.97 (inactive)
19) CC(C)N(CCCNC(=O)Nc1ccc(C(C)(C)C)cc1)CC1OC(n2ccc3c(N)ncnc32)C(O)C1O (stereo not drawn) :: 0.885 (inactive)
20) C[N+](C)(C)CC=O :: 1 (inactive)
21) CCN(CC)CCOC(=O)c1ccc(N)cc1Cl :: 0.9 (inactive)
22) C[N+](C)(C)CCOP(=O)(O)OP(=O)([O-])OC[C@H]1O[C@@H](n2ccc(N)nc2=O)C(O)[C@H]1O (stereo partly drawn) :: 1.01 (inactive)
23) CCOC(=O)c1c(C)nn(-c2ccc(OC)cc2)c1C :: 0.895 (inactive)

* * *

test: viability loss with induced miR-34 in A549 – imaging, A549 dox-inducible miR-34, nuclei and caspase counts, primary screen (AID 1347080); conditions: A549 miR-34 inducible, Hoechst nuclei count, 48 h; stronger effect = lower value; cell number ratio, induced over uninduced; note: test concentration not given here
So basically: is fold change under 0.9? Then t. Not under? Then f.

1. COc1cc(/C=C(\C#N)C(=O)c2ccc(O)c(O)c2)cc(I)c1O :: f
2. CC1C(NC(=O)C(=NOC(C)(C)C(=O)O)c2csc(N)n2)C(=O)N1S(=O)(=O)O (stereo not given) :: f
3. O=C(O)c1ccc(-c2ccccc2Cl)o1 :: t
4. C#C[C@]1(O)CC[C@H]2[C@@H]3CCC4=CC(=O)CC[C@@H]4[C@@H]3CC[C@@]21C :: t
5. Nc1ncn(C2O[C@H](CO)[C@@H](O)[C@H]2O)c(=O)n1 (stereo not given in full) :: t
6. O=C(c1cccc2nccnc12)N1CCc2[nH]nc(COc3ccccc3)c2C1 :: t
7. CCNC(=O)c1noc(-c2cc(Cl)c(O)cc2O)c1-c1ccc(OC)cc1 :: f
8. CN(C)CCC=C1c2ccccc2COc2ccccc21 :: f
9. CC1CNc2c(cccc2S(=O)(=O)NC(CCCN=C(N)N)C(=O)N2CCC(C)CC2C(=O)O)C1 (stereo not given) :: f
10. NC[C@H]1O[C@H](OC2[C@@H](N)C[C@@H](N)[C@H](O)[C@H]2O[C@@H]2O[C@H](CO)[C@@H](O)[C@H]2O)[C@H](N)[C@@H](O)[C@@H]1O (stereo not given in full) :: f
11. CN(C)c1ccc(C(=O)O)cc1 :: f

* * *

assay: viability loss with induced miR-34 in A549 – imaging, A549 dox-inducible miR-34, nuclei and caspase counts, primary screen (AID 1347080); settings: A549 miR-34 inducible, Hoechst nuclei count, 48 h; measured here: relative caspase fold change +Dox/-Dox; note: test concentration not given here
Property label: fold change

1) COc1cc(F)ccc1C(=O)N1CCc2[nH]nc(Cc3ccccc3)c2C1 :: 1.46
2) CC(C)CCN1c2nc(Nc3cc(F)c(O)c(F)c3)ncc2N(C)C(=O)C1C (stereo not given) :: 0.299
3) Cc1ccc(NC(=O)C2CC23CCCCC3)cn1 (stereo not given) :: 0.564
4) CC(C)C1=NOC(c2nc(-c3cccc4ccccc34)no2)C1 (stereo not given) :: 1.54
5) CC[C@H](C)[C@H](NC(=O)c1nc2ccccc2c(=O)[nH]1)C(=O)OC :: 2.34

* * *

experiment: viability loss with induced miR-34 in A549 – imaging, A549 dox-inducible miR-34, nuclei and caspase counts, primary screen (AID 1347080); conditions: A549 miR-34 inducible, Hoechst nuclei count, 48 h; measured here: total cells with miR-34 induction; stronger effect = lower value; note: test concentration not given here
So basically: is cell count under 8000? Then true (1). Not under? Then false (0).

1) COc1ncccc1C(=O)N1CCOc2ccccc21 :: false (0)
2) N[C@H](C(=O)O)[C@H](O)C(=O)O :: false (0)
3) CC/C=C\C/C=C\C/C=C\C/C=C\C/C=C\CCCC(=O)OCC :: false (0)
4) CC(=O)OCC(=O)[C@]1(O)CC[C@H]2[C@@H]3CCC4=CC(=O)CC[C@]4(C)[C@@H]3C(=O)C[C@@]21C :: false (0)
5) CC(C)c1onc(-c2c(Cl)cccc2Cl)c1COc1ccc(C=Cc2cccc(C(=O)O)c2)c(Cl)c1 :: true (1)
6) CN(C)Cc1ccc(S(=O)(=O)n2ccc(C=CC(=O)NO)c2)cc1 :: true (1)
7) N#Cc1c(-c2ccccc2)no[n+]1[O-] :: true (1)
8) Cn1c(=O)c2[nH]c(-c3ccc(S(=O)(=O)O)cc3)nc2n(C)c1=O :: false (0)
9) CCC(C)C(=O)OC1CC(O)C=C2C=CC(C)C(CCC(O)CC(O)CC(=O)O)[C@H]21 (stereo partly specified) :: true (1)
10) COc1cc(C(=O)NC2CCN(C)CC2)ccc1Nc1ncc2c(n1)N(C1CCCC1)CC(F)(F)C(=O)N2C :: true (1)
11) Nc1nc(-c2ccc(O)cc2)cs1 :: true (1)
12) NC(=O)c1c(NC(=O)C2CC2)sc2c1CCCC2 :: true (1)
13) CC(C)CC(NC(=O)C(CCc1ccccc1)NC(=O)CN1CCOCC1)C(=O)NC(Cc1ccccc1)C(=O)NC(CC(C)C)C(=O)[C@@]1(C)CO1 (stereo partly specified) :: true (1)
14) c1ccc(NCc2ccc(CNc3ccccn3)cc2)nc1 :: true (1)
15) Cc1nn(C)c(C)c1-c1ccnc(N2CCCC2c2nc(-c3cccnc3)no2)n1 (stereo unspecified) :: true (1)
16) S=C(Nc1ccccc1)Nc1nccs1 :: true (1)
17) CCC(=O)OCC(=O)C1(OC(=O)CC)[C@H](C)C[C@H]2[C@H]3[C@H]([C@@H](O)C[C@@]21C)[C@@]1(C)C=CC(=O)C=C1C[C@H]3Cl (stereo partly specified) :: true (1)
18) COc1cc(N2CCN(Cc3ccccc3F)C(=O)C2)ncn1 :: true (1)
19) CN[C@H](CC(C)C)C(=O)N[C@H]1C(=O)N[C@@H](CC(N)=O)C(=O)N[C@H]2C(=O)N[C@H]3C(=O)N[C@H](C(=O)N[C@H](C(=O)O)c4cc(O)cc(O)c4-c4cc3ccc4O)[C@H](O)c3ccc(c(Cl)c3)Oc3cc2cc(c3O[C@@H]2OC(CO)[C@@H](O)[C@H](O)[C@H]2O[C@H]2C[C@](C)(N)[C@H](O)[C@H](C)O2)Oc2ccc(cc2Cl)[C@H]1O (stereo partly specified) :: false (0)
20) COC1CC2CCC(C)[C@](O)(O2)C(=O)C(=O)N2CCCC[C@H]2C(=O)OC(C(C)CC2CCC(n3cnnn3)C(OC)C2)CC(=O)C(C)C=C(C)C(O)C(OC)C(=O)C(C)CC(C)C=CC=CC=C1C (stereo partly specified) :: true (1)
